test: Half life in dog at 1 mg/kg, iv and 1 mg/kg, po; assay type: ADME, organism-based, Canis lupus familiaris; settings: in vivo
PARAMETER_MEASURED: half-life (h)
Lab book: enter the figure in h, no units written.

Req: Can you share its half-life? I mean this compound: "O=C([C@@H]1C[C@H](N2CCN(c3ncccn3)CC2)CN1)N1CCC(F)(F)C1"
Resp: 7.6

###

test: Volume of distribution at steady state in cynomolgus monkey at 1 mg/kg, iv and 1 mg/kg, po; assay type: ADME, organism-based, Macaca fascicularis; settings: in vivo, read-out: Vdss
PARAMETER_MEASURED: Vd (L/kg)
Please respond with the number in L/kg and leave the unit unwritten.

Req: Looking for the measured Vd of O=C([C@@H]1C[C@H](N2CCN(c3ncccn3)CC2)CN1)N1CCC(F)(F)C1 [GOSOGLIPTIN] , can you help?
Resp: 1

###

assay: Clearance in dog plasma at 1 mg/kg, iv and 1 mg/kg, po; type: ADME, organism-based, Canis lupus familiaris
PARAMETER_MEASURED: clearance
Don't forget the unit after the value.

Req: Quick one: clearance of "O=C([C@@H]1C[C@H](N2CCN(c3ncccn3)CC2)CN1)N1CCC(F)(F)C1" ?
Resp: 3.7 mL/min/kg

###

test: Fraction unbound in rat; type: ADME
PARAMETER_MEASURED: fraction unbound
Please give the numeric answer without any surrounding text.

Req: Request the reported fraction unbound associated with "O=C([C@@H]1C[C@H](N2CCN(c3ncccn3)CC2)CN1)N1CCC(F)(F)C1"
Resp: 0.8

###

assay: Volume of distribution at steady state in Sprague-Dawley rat at 1 mg/kg, iv and 5 mg/kg, po; conditions: in vivo
PARAMETER_MEASURED: Vd (L/kg)
Numeric only. Scale: L/kg

Req: Name the reported Vd value associated with the compound O=C([C@@H]1C[C@H](N2CCN(c3ncccn3)CC2)CN1)N1CCC(F)(F)C1 [GOSOGLIPTIN]
Resp: 1.9

Req: Requested read-out: Vd. Entry: "N#Cc1cccnc1N1CCN([C@@H]2CN[C@H](C(=O)N3CCC(F)(F)C3)C2)CC1"
Resp: 1.8

Req: Sample "O=C([C@@H]1C[C@H](N2CCN(c3ncccn3)CC2)CN1)N1C[C@@H](F)[C@@H](F)C1" — what was its Vd?
Resp: 1.9

###

test: Terminal half life in human at 0.3 to 300 mg; type: ADME, organism-based; conditions: in vivo, read-out: beta t1/2 (converted)
PARAMETER_MEASURED: half-life (h)
Express it in h; write the number only.

Req: Entry O=C([C@@H]1C[C@H](N2CCN(c3ncccn3)CC2)CN1)N1CCC(F)(F)C1 [GOSOGLIPTIN] has what half-life?
Resp: 15.1

###

test: Fraction unbound in dog; assay type: ADME, Canis lupus familiaris
PARAMETER_MEASURED: fraction unbound
Enter the number alone.

Req: State the recorded fraction unbound for this entry: O=C([C@@H]1C[C@H](N2CCN(c3ncccn3)CC2)CN1)N1CCC(F)(F)C1 [GOSOGLIPTIN]
Resp: 0.8

###

assay: Cmax in dog at 1 mg/kg, po; type: ADME, organism-based, Canis lupus familiaris; design: dose 1 mg/kg, route oral; conditions: in vivo
PARAMETER_MEASURED: Cmax (ng/mL)
Number only, in ng/mL; omit the unit.

Req: // Cmax lookup, key: O=C([C@@H]1C[C@H](N2CCN(c3ncccn3)CC2)CN1)N1CCC(F)(F)C1 [GOSOGLIPTIN]
Resp: 1530

###

assay: Apparent permeability from basolateral to apical side in MDCK cells; settings: dog
PARAMETER_MEASURED: Papp B→A (×10⁻⁶ cm/s)
I only need the number, in ×10⁻⁶ cm/s, no unit after it.

Req: Requested field: Papp B→A. Item: "N#Cc1cccnc1N1CCN([C@@H]2CN[C@H](C(=O)N3CCC(F)(F)C3)C2)CC1"
Resp: 13.5

Req: Given the compound "O=C([C@@H]1C[C@H](N2CCN(c3noc4ccccc34)CC2)CN1)N1CCC(F)(F)C1" , what is its reported Papp B→A?
Resp: 11.2

###

biological target: Cytochrome P450 2C9 (Homo sapiens)
Sequence (P11712 whole entry): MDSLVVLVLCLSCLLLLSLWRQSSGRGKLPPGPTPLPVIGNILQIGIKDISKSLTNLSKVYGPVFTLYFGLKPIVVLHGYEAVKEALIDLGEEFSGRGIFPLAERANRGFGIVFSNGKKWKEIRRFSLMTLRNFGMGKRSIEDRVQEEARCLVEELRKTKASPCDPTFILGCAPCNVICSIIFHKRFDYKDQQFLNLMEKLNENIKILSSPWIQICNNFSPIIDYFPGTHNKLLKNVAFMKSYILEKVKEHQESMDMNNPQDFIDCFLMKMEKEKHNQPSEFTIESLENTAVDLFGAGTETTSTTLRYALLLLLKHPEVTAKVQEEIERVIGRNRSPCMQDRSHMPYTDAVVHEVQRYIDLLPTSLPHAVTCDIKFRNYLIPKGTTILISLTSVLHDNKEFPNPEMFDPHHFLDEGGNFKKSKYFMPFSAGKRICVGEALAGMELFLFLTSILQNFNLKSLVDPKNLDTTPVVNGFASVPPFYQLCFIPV
PARAMETER_MEASURED: IC50

Req: Fill blank: measured IC50 of the compound "O=C([C@@H]1C[C@H](N2CCN(c3ncccn3)CC2)CN1)N1CCC(F)(F)C1" is ____.
Resp: > 30 µM

###

experiment: Fraction unbound in monkey; assay type: ADME, Macaca mulatta; conditions: rhesus monkey
PARAMETER_MEASURED: fraction unbound
Lab note: jot down the number only; don't add units.

Req: Quick one: fraction unbound of "O=C([C@@H]1C[C@H](N2CCN(c3ncccn3)CC2)CN1)N1CCC(F)(F)C1" ?
Resp: 0.8

###

biological target: Dipeptidyl peptidase 8 (Homo sapiens); assay: Inhibition of human recombinant DPP8
Sequence (Q6V1X1 whole entry): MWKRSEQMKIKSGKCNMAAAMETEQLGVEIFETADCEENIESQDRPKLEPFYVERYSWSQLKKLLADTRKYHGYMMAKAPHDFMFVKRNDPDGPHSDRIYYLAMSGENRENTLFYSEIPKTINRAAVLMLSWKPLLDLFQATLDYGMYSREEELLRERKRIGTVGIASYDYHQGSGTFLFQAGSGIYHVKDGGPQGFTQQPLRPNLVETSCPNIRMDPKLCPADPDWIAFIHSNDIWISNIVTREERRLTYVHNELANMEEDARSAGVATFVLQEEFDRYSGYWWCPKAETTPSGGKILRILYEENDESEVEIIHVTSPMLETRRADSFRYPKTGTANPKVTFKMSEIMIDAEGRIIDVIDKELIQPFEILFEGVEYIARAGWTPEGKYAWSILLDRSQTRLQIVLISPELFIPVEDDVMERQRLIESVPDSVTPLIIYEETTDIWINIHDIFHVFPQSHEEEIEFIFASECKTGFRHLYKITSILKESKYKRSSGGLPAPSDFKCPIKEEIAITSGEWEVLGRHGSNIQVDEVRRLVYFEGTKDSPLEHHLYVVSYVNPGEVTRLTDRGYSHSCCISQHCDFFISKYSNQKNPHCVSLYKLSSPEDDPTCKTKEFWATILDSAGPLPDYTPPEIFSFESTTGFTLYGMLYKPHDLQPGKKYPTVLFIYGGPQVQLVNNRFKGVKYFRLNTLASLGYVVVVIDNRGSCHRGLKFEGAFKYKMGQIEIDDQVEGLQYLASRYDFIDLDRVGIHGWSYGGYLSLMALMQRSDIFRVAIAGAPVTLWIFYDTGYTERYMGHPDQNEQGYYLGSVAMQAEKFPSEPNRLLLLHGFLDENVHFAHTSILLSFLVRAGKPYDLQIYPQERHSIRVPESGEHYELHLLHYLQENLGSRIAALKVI
PARAMETER_MEASURED: IC50

Req: Reported IC50 for "O=C([C@@H]1C[C@H](N2CCN(c3ncccn3)CC2)CN1)N1CC(F)C1" : what is it?
Resp: > 30 µM

###

assay: Half life in Sprague-Dawley rat at 1 mg/kg, iv and 5 mg/kg, po; settings: in vivo
So I've got a bunch of compounds here, and I need their half-life values.
Write down the numeric answer in h and omit the unit.

Req: Which value of half-life has been reported for "O=C([C@@H]1C[C@H](N2CCN(c3ncccn3)CC2)CN1)N1CCC(F)(F)C1" in the records?
Resp: 2.5

Req: For the compound "N#Cc1cccnc1N1CCN([C@@H]2CN[C@H](C(=O)N3CCC(F)(F)C3)C2)CC1" , what half-life is on record?
Resp: 1.5

Req: # lookup: half-life of "O=C([C@@H]1C[C@H](N2CCN(c3ncccn3)CC2)CN1)N1C[C@@H](F)[C@@H](F)C1"
Resp: 2.3

###

test: AUC in dog at 1 mg/kg, po; assay type: ADME, organism-based, Canis lupus familiaris; parameters: dose 1 mg/kg, route oral; details: plasma
PARAMETER_MEASURED: AUC (ng·h/mL)
API: value field is a number in ng·h/mL; no unit string.

Req: Bench note: what AUC did "O=C([C@@H]1C[C@H](N2CCN(c3ncccn3)CC2)CN1)N1CCC(F)(F)C1" show?
Resp: 7160
